Entry source: patent US20100279997A1

- SYSTEM_TESTED: μ opiate receptor (MOR) (Rattus norvegicus, UniProt P33535)
- Construct: from tissue; host or cells: striatal tissue (membrane preparation)
- Sequence (P33535 whole entry): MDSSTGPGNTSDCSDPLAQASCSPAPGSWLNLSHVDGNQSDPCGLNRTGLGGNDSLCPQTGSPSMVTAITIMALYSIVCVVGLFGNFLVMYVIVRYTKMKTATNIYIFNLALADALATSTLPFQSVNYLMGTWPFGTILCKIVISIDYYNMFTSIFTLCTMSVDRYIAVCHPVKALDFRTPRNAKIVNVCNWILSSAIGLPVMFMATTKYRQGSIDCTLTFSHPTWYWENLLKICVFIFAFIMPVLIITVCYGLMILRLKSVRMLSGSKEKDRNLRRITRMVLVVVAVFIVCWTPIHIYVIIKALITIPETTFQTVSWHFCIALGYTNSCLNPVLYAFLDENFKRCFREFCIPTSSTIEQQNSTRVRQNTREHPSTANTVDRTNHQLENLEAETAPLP
- ASSAY_INFO: MOR agonist activity, [35S]GTPγS binding assay using striatal membranes
- Format: biochemical
- MEASUREMENT_PARAMETERS: 1 μM compound, striatal membranes
- Experimental: To assess the μ opiate receptor (MOR) agonist activity of positive compounds from the FLNA screening, compounds were tested in a [^35S]GTPγS binding assay using striatal membranes. […] The immunocomplexes so formed were collected by incubation at 25° C. for 30 minutes with 40 μl of agarose-conjugated protein A/G beads and centrifugation at 5,000×g at 4° C. for 5 minutes. […] The radioactivity in the suspension was determined by liquid scintillation spectrometry. […]
MEASURE: [35S]GTPγS binding to Gαo, FLNA-binding compound as agonist 1 μM (%)
// return numeric value only (unit: %, not printed)

The recorded [35S]GTPγS binding to Gαo, FLNA-binding compound as agonist 1 μM for entry CC1CCC(C)C(OCC(O)CN2CC(C)OC(C)C2)C1 (centres unmarked) [Compound A0022] equals 216.0

Given item CC1CCC(C(C)C)C(OCC(O)CN2CCCCC2=O)C1 (centres unmarked) [Compound A0036] , the value recorded as its [35S]GTPγS binding to Gαo, FLNA-binding compound as agonist 1 μM is 167.5

# [35S]GTPγS binding to Gαo, FLNA-binding compound as agonist 1 μM (molecule: CC1CN(CC(O)COc2ccccc2C(C)C)CC(C)O1 (centres unmarked) [Compound A0029] ) is 206.5

// [35S]GTPγS binding to Gαo, FLNA-binding compound as agonist 1 μM value for Cc1ccc(C(C)C)c(OCC(O)CN2CC(C)OC(C)C2)c1 (centres unmarked) [Compound A0028] : 187.7

[35S]GTPγS binding to Gαo, FLNA-binding compound as agonist 1 μM in this record for CC1CCC(C(C)C)C(OCC(O)CN2CCN(CCc3ccccc3)CC2)C1 (centres unmarked) [Compound A0020] : 217.4

Per the record, CC1CCC(C(C)C)C(OCC(CN2CC(C)OC(C)C2)NCc2ccccc2)C1 (centres unmarked) [Compound A0033] has [35S]GTPγS binding to Gαo, FLNA-binding compound as agonist 1 μM of 254.6

GET /value?item= COc1ccc(N2CCN(CC(O)COC3CC(C)CCC3C(C)C)CC2)c(OC)c1 (centres unmarked) [Compound A0012] &field=[35S]GTPγS binding to Gαo, FLNA-binding compound as agonist 1 μM returns 185.7

[35S]GTPγS binding to Gαo, FLNA-binding compound as agonist 1 μM reading for COc1ccc(OCC(O)CN2CC(C)OC(C)C2)cc1 (centres unmarked) [Compound A0048] : 302.9
